Test system: BALB/c mice
Assay: Toxicity and movement activity after i.v. injection
Conditions: BALB/c (around 20 gm) mice, i.v. single dose 75 μl of 1 mM, within 30 minutes
Protocol: To design a MTD peptide anti-cancer drug, the MTD peptide was fused to various known tumor-homing motifs through its N-terminal or C-terminal region, and a linker was introduced between these two motifs to impart flexibility and minimize steric hindrance (Figure 1A, Supplementary Table S1). […] Thus, BALB/c mouse movements were also evaluated within 30 minutes of the intravenous injection of a single dose of 75 μl of 1 mM TU:MTDs per mouse. […] Abbreviation: NR; no regression, ND; not determined. […]
Bridge positions count the residues as written; N and C are the ends. Ends that are not written are not given here.
Observable: Movement Activities

Polymer Sequence	System Name	Movement Activities
WDLAWMFRLPVGKLLNLISKLF [TU5:MTD]	BALB/c mice	Normal
KLLNLISKLFCRGDKGPDC (disulfide 11-19 (inferred)) [TU10:MTD]	BALB/c mice	Slow
WIFPWIQLKLLNLISKLF [TU4:MTD]	BALB/c mice	Slow
KLLNLISKLFCRGDKRLYDC (disulfide 11-20 (inferred)) [TU11:MTD]	BALB/c mice	Slow
RLLRLLRLLRGGKLLNLISKLF [TU15:MTD]	BALB/c mice	Slow
CGKRKGGKLLNLISKLF [TU19:MTD]	BALB/c mice	Normal
KLLNLISKLFGGCGKRK [TU20:MTD]	BALB/c mice	Normal
KLLNLISKLFGGRLLRLLRLLR [TU16:MTD]	BALB/c mice	Normal

I'm hoping you can list Movement Activities for every sequence here, please.
1. KLLNLISKLFGGRPARPAR [TU18:MTD]
2. CRGDKGGKLLNLISKLF [TU21:MTD]
3. KLLNLISKLFGGCRGDK [TU22:MTD]
4. CNGRCVSGCAGRCGGKLLNLISKLF [TU2:MTD]

// result
["Slow", "Slow", "Normal", "Normal"]

// provenance: paper PMC5078025
